Hello, the source for this data is patent US20220127585A1, in case you need it.

# STUDY TARGET: T1, B-Raf kinase, P15056
# T1 chain: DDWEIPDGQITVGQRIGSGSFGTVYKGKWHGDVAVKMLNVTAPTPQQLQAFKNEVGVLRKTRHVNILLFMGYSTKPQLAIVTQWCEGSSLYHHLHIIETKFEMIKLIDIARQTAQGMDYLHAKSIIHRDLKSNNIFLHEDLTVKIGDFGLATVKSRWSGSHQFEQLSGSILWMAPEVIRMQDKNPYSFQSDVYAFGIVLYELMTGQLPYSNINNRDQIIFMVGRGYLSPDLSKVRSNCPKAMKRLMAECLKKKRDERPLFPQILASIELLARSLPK
# ASSAY SUMMARY: binding affinity, Table 3 (method not given; the Methods describe fluorescence titration)
pKd: −log10 of the molar value. Where no end group is shown, it is not given here. [ ]: non-standard residue; d: D form. code O = not defined here
PROPERTY MEASURED: pKd

Example entries and their recorded answers appear below.
>>> measurement("VLRK[code O]RHVAELIFMG (reading uncertain) [SEQ ID NO: 58 (VLRKO…)]")
6.77
>>> measurement("LRKTRHVNILLFMG (modifications not checked) [SEQ ID NO: 31 (…)]")
5.73

a. VLRKKRHVNELLFMG (modifications not checked) [SEQ ID NO: 53 (…)]
b. VLRKKRHVAELLFMG (modifications not checked) [SEQ ID NO: 60 (VLRKKMe…)]
c. KRHVAELLFMG (modifications not checked) [SEQ ID NO: 47 (…)]
d. KRHPAELLFMG (modifications not checked) [SEQ ID NO: 61 (…)]
Please rank these binders by pKd in descending order. Output spec: a listing of the labels in the requested order.
b, d, c, a
